# target_entity: D3 receptor in rat brain (Rattus norvegicus, UniProt P19020)
# Construct: from tissue; host or cells: brain cryosections (12 µm) of male Wistar rats
# Sequence (P19020 whole entry): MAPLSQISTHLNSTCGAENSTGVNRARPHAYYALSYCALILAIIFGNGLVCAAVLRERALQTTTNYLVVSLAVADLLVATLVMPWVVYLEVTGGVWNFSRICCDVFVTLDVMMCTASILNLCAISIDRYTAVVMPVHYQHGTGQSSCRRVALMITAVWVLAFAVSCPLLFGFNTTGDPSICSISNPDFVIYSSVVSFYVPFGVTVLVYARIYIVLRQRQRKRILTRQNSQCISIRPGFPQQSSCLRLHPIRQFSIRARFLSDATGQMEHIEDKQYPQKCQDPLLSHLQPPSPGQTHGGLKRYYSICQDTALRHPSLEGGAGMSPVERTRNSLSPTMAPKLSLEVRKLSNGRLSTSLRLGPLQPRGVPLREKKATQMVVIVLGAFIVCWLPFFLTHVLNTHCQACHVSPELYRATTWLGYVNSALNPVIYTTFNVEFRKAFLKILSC
# test_details: Saturation binding assay on rat brain sections
# assay_context: nucleus accumbens
endpoint_label: Kd (nM)
Give just the numeric value; nM need not be written.

Ask | State the recorded Kd for this entry: COc1ccccc1N1CCN(CCCCNC(=O)/N=N/c2ccc([18F])cc2)CC1 [[^18F]2b]
Reply | 0.11

###

# test_details: Determination of log D7.4 (experimental)
# Assay type: physicochemical
# assay_context: pH 7.4, n = 6
endpoint_label: logD
Reply with just the number.

Ask | State the recorded logD for this entry: O=C(NCCC(O)CN1CCN(c2cccc(Cl)c2Cl)CC1)c1ccc(F)nc1 (stereo not shown) [[^18F]1]
Reply | 2.5
